# SYSTEM TESTED: Human BCMA (human) (UniProt Q02223)
# EXPERIMENTAL DETAILS: SPR, IgG on chip, huBCMA analyte

| BINDER | QUANTITY UNIT | kon |
| --- | --- | --- |
| COMBO_Rd4_0.6nM_C23 (antibody, V domains shown, IgG) VH: EVQLLESGGGLVQPGGSLRLSCAASGFTFSSYPMSWVRQAPGKGLEWVSALFGSGGSTYYADSVKGRFTISRDNSKNTLYLQMNSLRAEDTAVYYCARYWPMDSWGQGTLVTVSS VL: EIVLTQSPGTLSLSPGERATLSCRPRQSVSSSYLAWYQQKPGQAPRLLMYDASIRATGIPDRFSGSGSGTDFTLTISRLEPEDFAVYYCQQYQDWPLTFGQGTKVEIK | M⁻¹ s⁻¹ | 7.39e+06 |
| C01_Rd4_0.6nM_C03 (antibody, V domains shown, IgG) VH: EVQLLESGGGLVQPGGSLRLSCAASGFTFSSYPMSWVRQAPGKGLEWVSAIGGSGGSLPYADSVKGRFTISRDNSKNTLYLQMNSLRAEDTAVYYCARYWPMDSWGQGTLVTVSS VL: EIVLTQSPGTLSLSPGERATLSCRASCDVSSTYLAWYQQKPGQAPRLLIYDASSRAPGIPDRFSGSGSGTDFTLTISRLEPEDFAVYYCQQYMRSPLTFGQGTKVEIK | M⁻¹ s⁻¹ | 1.55e+07 |
| A02_Rd4_0.6nM_C09 (antibody, V domains shown, IgG) VH: EVQLLESGGGLVQPGGSLRLSCAASGFTFSSYAMNWVRQAPGKGLEWVSAISDSGGSMWYADSVKGRFTISRDNSKNTLYLQMNSLRAEDTAVYYCARYWPMSLWGQGTLVTVSS VL: EIVLTQSPGTLSLSPGERATLSCRASQSVSSSYLAWYQQKPGQAPRLLMYDASIRATGIPDRFSGSGSGTDFTLTISRLEPEDFAVYYCQQYQSWPLTFGQGTKVEIK | M⁻¹ s⁻¹ | 5.5e+06 |
